Listed here are compounds together with their documented % Ctrl.
Tested on: SRMS
procedure details: KINOMEscan kinase binding assay
condition context: at 1 μM
Please state the figure in %; there is no need to write the unit.

Consider the worked cases shown below.
Q) For the compound shown here, "Cc1cc2c([nH]1)/C=C1\C(=O)Nc3c(Cl)cc(cc31)-c1cn(C)nc1COC[C@@H](C)N(C)C2=O" , give the reported % Ctrl.
A) 61

Q) For the compound shown here, "Cc1cc2c([nH]1)/C=C1\C(=O)Nc3c(Cl)cc(cc31)-c1cn(C)nc1COC[C@@H](C)NC2=O" , give the reported % Ctrl.
A) 69

Q) For the compound shown here, "Cc1cc2c([nH]1)/C=C1\C(=O)Nc3ccc(cc31)-c1c(nn(C)c1C)OCCCN(C)C2=O" , give the reported % Ctrl.
A) 93

Q) For the compound shown here, "Cc1cc2c([nH]1)/C=C1\C(=O)Nc3ccc(cc31)-c1c(nn(C)c1C)COCCN(C)C2=O" , give the reported % Ctrl.
A) 90

Please turn your attention to the following entry.
Q) For the compound shown here, "C[C@@H]1COCc2nn(C)cc2-c2cc(Cl)c3c(c2)/C(=C/c2[nH]ccc2C(=O)N1)C(=O)N3" , give the reported % Ctrl.
A) 68

* * *

Test system: EPHB3
procedure details: KINOMEscan kinase binding assay
condition context: at 1 μM
measured attribute: % Ctrl (%)
Please state the figure in %; there is no need to write the unit.

Consider the worked cases shown below.
Q) For the compound shown here, Cc1cc2c([nH]1)/C=C1\C(=O)Nc3ccc(cc31)-c1c(nn(C)c1C)COCCN(C)C2=O [Cpd. 2] , give the reported % Ctrl.
A) 100

Q) For the compound shown here, Cc1cc2c([nH]1)/C=C1\C(=O)Nc3c(Cl)cc(cc31)-c1cn(C)nc1COC[C@@H](C)N(C)C2=O [Cpd. 5] , give the reported % Ctrl.
A) 89

Q) For the compound shown here, Cc1cc2c([nH]1)/C=C1\C(=O)Nc3ccc(cc31)-c1c(nn(C)c1C)OCCCN(C)C2=O [Cpd. 1] , give the reported % Ctrl.
A) 99

Q) For the compound shown here, Cc1cc2c([nH]1)/C=C1\C(=O)Nc3c(Cl)cc(cc31)-c1cn(C)nc1COC[C@@H](C)NC2=O [Cpd. 3] , give the reported % Ctrl.
A) 93

More entries:
Q) For the compound shown here, C[C@@H]1COCc2nn(C)cc2-c2cc(Cl)c3c(c2)/C(=C/c2[nH]ccc2C(=O)N1)C(=O)N3 [Cpd. 4] , give the reported % Ctrl.
A) 93

* * *

Test system: EPHA6
procedure details: KINOMEscan kinase binding assay
condition context: at 1 μM
Listed here are molecules together with their documented % Ctrl.

Consider the worked cases shown below.
Q) For the molecule shown here, "Cc1cc2c([nH]1)/C=C1\C(=O)Nc3c(Cl)cc(cc31)-c1cn(C)nc1COC[C@@H](C)NC2=O" , give the reported % Ctrl.
A) 93%

Q) For the molecule shown here, "Cc1cc2c([nH]1)/C=C1\C(=O)Nc3ccc(cc31)-c1c(nn(C)c1C)OCCCN(C)C2=O" , give the reported % Ctrl.
A) 94%

Q) For the molecule shown here, "C[C@@H]1COCc2nn(C)cc2-c2cc(Cl)c3c(c2)/C(=C/c2[nH]ccc2C(=O)N1)C(=O)N3" , give the reported % Ctrl.
A) 97%

Q) For the molecule shown here, "Cc1cc2c([nH]1)/C=C1\C(=O)Nc3ccc(cc31)-c1c(nn(C)c1C)COCCN(C)C2=O" , give the reported % Ctrl.
A) 100%

Please turn your attention to the following entry.
Q) For the molecule shown here, "Cc1cc2c([nH]1)/C=C1\C(=O)Nc3c(Cl)cc(cc31)-c1cn(C)nc1COC[C@@H](C)N(C)C2=O" , give the reported % Ctrl.
A) 91%
